Provenance of the data: ChEMBL document CHEMBL3988442

system: Wolbachia pipientis; assay: Anti-Wolbachia Cell-Based Screen; type: functional; parameters: scale not given: in the data most compounds retested in dose-response had high values; conditions: 5 µM
Screen size: about 48,000 compounds; about 13,000 (27%) showed an effect of 50% or more. This is one part of the list.
parameter: Percent Effect (%)
Your answer is read as %, so omit the unit and give the number.

// worked examples, Percent Effect included
{"columns": ["compound", "Percent Effect / %"],
 "data": [
  ["CCCN(CC(F)F)c1cc(COC)nc2ncnn12", -12.24],
  ["CN(Cc1nc(Cc2ccccc2F)no1)CC1Cc2ccccc2O1 (configuration not stated)", 1.647],
  ["CN(C)c1cncc(C2CCN(CC(N)=O)CC2)n1", 103],
  ["CN(C)c1cncc(C2CCN(CC3(O)CCCCC3)CC2)n1", 90.17],
  ["Cc1ccc(-c2ccnc(NC(C)c3ncc[nH]3)n2)c(C)n1 (configuration not stated)", 7.863]
]}

Query (compound): OC1(CN2CCCC2)CCCN(Cc2c[nH]c(CC3CCCC3)n2)C1 (configuration not stated) ; field requested: Percent Effect
-7.473

Query (compound): OC1(c2cn(CC3CCN(C4CCSC4)CC3)nn2)CCCC1 (configuration not stated) ; field requested: Percent Effect
-24.22

Query (compound): `CCCN1CCC(CC(=O)N(C)CC(=O)c2ccc(O)cc2)CC1` ; field requested: Percent Effect
-25.77

Query (compound): `Cc1ccc(CNC(=O)C2CCN(C(=O)c3ccco3)CC2)n1C` ; field requested: Percent Effect
1.7

Query (compound): `Cc1ncncc1-c1ccnc(NC(C)C)n1` ; field requested: Percent Effect
107.6

Query (compound): Cc1ccc(-c2ccnc(NC(C)c3n[nH]c(C)n3)n2)c(C)n1 (configuration not stated) ; field requested: Percent Effect
-0.9271

Query (compound): O=C(NCC1(O)CCOc2ccccc21)Nc1ccccc1 (configuration not stated) ; field requested: Percent Effect
-14.8

---

system: Wolbachia pipientis; test: Anti-Wolbachia Cell-Based Screen; type: functional; design: scale not given: in the data most compounds retested in dose-response had high values; details: 5 µM
About 13,000 (27%) of roughly 48,000 compounds showed an effect of 50% or more. This is one part of the list.
parameter: Percent Effect (%)
Your answer is read as %, so omit the unit and give the number.

{"columns": ["compound", "obs value"],
 "data": [
  ["COc1ccc(N2CCN(Cc3nc(CSC)no3)C(C)C2=O)cc1 (stereo not given)", 106.8],
  ["Cc1noc(C(C)C)c1C(=O)NCc1cccc(N(C)C)c1", -0.3759],
  ["O=C(Cc1cccc(Cl)c1)Nc1cnccc1SCCCO", 7.035],
  ["c1ccc(-n2ccc(CN3CCCCC3Cn3cncn3)n2)cc1 (stereo not given)", 140.8],
  ["CCc1cnc(CN2C(=O)CC3(CCSC3)C2=O)o1 (stereo not given)", -1.105],
  ["N#Cc1ccccc1CN1CCCCC1Cn1cncn1 (stereo not given)", 7.073],
  ["CN(Cc1nnc2n1CCC2)S(=O)(=O)c1cc(Br)ccc1Br", 5.695],
  ["c1ccc(-n2ccc(CN3CCCC3Cn3cncn3)n2)cc1 (stereo not given)", 128.5],
  ["CCCN(CC1COc2ccccc2O1)C(=O)c1ncoc1CC (stereo not given)", -65.56],
  ["COc1cccc(S(=O)(=O)NC(=O)c2c(C)noc2C(C)C)c1", -5.099]
]}

Query (compound): `Cc1nc(-c2cnn(C)c2)sc1C(=O)NCc1cccc(CN(C)C)c1` ; field requested: Percent Effect
4.14

Query (compound): `CCN1CC2(CCN(Cc3nc(CSC)no3)CC2)CC1=O` ; field requested: Percent Effect
-1.733

Query (compound): `O=C(Cn1cc(C(=O)O)ccc1=O)NCc1ccc(F)cc1Cl` ; field requested: Percent Effect
11.66

Query (compound): `CNC(=O)COc1cccc(CNCc2c(C)noc2C)c1` ; field requested: Percent Effect
-88.14

Query (compound): `Cc1noc(C(C)C)c1C(=O)NS(=O)(=O)c1cccnc1` ; field requested: Percent Effect
-12.13

Query (compound): CCc1ccc(C2CCCCCN2Cc2nc(CCOC)no2)o1 (stereo not given) ; field requested: Percent Effect
-5.886

Query (compound): CCc1ncc2c(n1)CN(C(C(N)=O)c1ccccc1)CC2 (stereo not given) ; field requested: Percent Effect
-0.2058

Query (compound): `Cc1noc(C(C)C)c1C(=O)NCc1cccc(CN(C)C)c1` ; field requested: Percent Effect
74.15

Query (compound): Cc1cnn(CC2CN(c3ncnc4ccsc34)CCO2)c1 (stereo not given) ; field requested: Percent Effect
-19.26

Query (compound): `COc1ccc(N2CCN(C[C@@H](C)CO)CC2=O)cc1` ; field requested: Percent Effect
-31.81

Query (compound): `CNC1CCN(C2CCN(c3ccc(-c4ccco4)cc3)CC2)CC1` ; field requested: Percent Effect
-8.193

Query (compound): COc1ccc(S(=O)(=O)N2CC(CC(=O)O)c3ccccc32)cc1 (stereo not given) ; field requested: Percent Effect
-7.807

Query (compound): `COc1ccc(-c2ccc(C(=O)O)c(F)c2)c(F)c1` ; field requested: Percent Effect
-9.144

Query (compound): `CC(C)(O)CN1CCN(C(=O)COCC2CC2)CC1` ; field requested: Percent Effect
6.995

Query (compound): `CNC(=O)COc1cccc(CNC(=O)c2c(C)noc2C)c1` ; field requested: Percent Effect
3.18
